Entry source: patent US20220144922A1

Property: pKd; scope: individual binders
target: T1, prefusion-stabilized RSV F ectodomain (DS-Cav1), subtype B (respiratory syncytial virus subtype B); test: BLI, IgG on sensor
T1 construct: extracellular domain; also called Prefusion subtype B
pKd is defined as minus the log10 of a concentration measured in mol/L.

As a guide, the following entries are already answered.
1) ADI-15617 (antibody, V domains shown, IgG; also called Antibody Number 182) VH: EVQLVESGGGLVQPGGSLRISCAASGFSISSHAVSWVRQAPGKGLEWVSVISGSGGDTHSVVQGRGSGTYYADSVKGRFTISRDNVRNTVYLQMNSLRVEDTAVYYCAKDDPTLFWSGSGYYGMDVWGQGTTVTVSS VL: DIRVTQSPSSLSASVGDRVTITCQASQGISDSLNWYQQKPGKAPKLLIYGASKLEPGVSSRFSGRGSGRDFTFTISSLQPEDIGTYYCQQYDNLPLTFGPGTKLEIK
9.15
2) ADI-15651 (antibody, V domains shown, IgG) VH: EVQLVESGPALVKPTQTLTLTCTVSGGVERMSVSWVRQPPGKALEWLARIDWDDDKYYNTFLKTRLTISKGTSKNEVVLTMTNMDPEDTAIYYCARTNRYDKSGYYLYYLDYWGQGTLVTVSS VL: DIQMTQSPSSLSASVGDKVTITCRASQTIASYVNWYQQHPGKAPKLLIYLASRLQSGAPSRFSGSGSGTDFTLTILNLQPEDFATYYCQQSYSSFFTFGPGTKVEIK
8.68
3) ADI-15641 (antibody, V domains shown, IgG; also called Antibody Number 205) VH: QVQLVESGGGVVQPGRSLRVSCAASGFDFSNYAMHWVRQAPGKGLEWVALISYDGNNKVYADSVKGRFTVSRDNSKNTLYLQMNSLRPEDTAVIYCAKDGYLAPDFWGQGTLVTVSS VL: QSVLTQPASVSGSPGQSIIISCTGTSSDVGEYDYVSWYQHHPHKAPKLIIYEVSNRPSGVSNRFSGSKSGNTASLTISGLQAEDEADYYCSSYTSSSGQAFGTGTKVTVL
9.87
4) ADI-15640 (antibody, V domains shown, IgG; also called Antibody Number 204) VH: QVQLVESGPALVKPTQTLTLTCAFSGFSLTTRGMSVSWIRQPPGKALEWLARIDWDDDKYYSTSLKTRLTISKDTSKNQVVLTMSNMDPVDTATYYCARASLYDSGGYYLFFFDYWGQGTLVTVSS VL: DIVMTQSPSSLSASVGDRVTITCRASQSIGSYLNWYQQKPGKVPKLLIYAASNLQGGVPSRFRGSGSGTDFTLTISNLQPEDFASYYCQLSYSSLWTFGQGTKVEIK
8.83
5) ADI-15658 (antibody, V domains shown, IgG) VH: EVQLVESGGGLVQPGRSLRLSCVTSGFGFDDYAMHWVRQAPGKGLEWVSGIGWNSGGIGYADSVKGRFSISRDNAKNSLYLQMNSLRPEDTAFYYCVKDGTPIAVAGYFEYWGQGTLVTVSS VL: SYELTQPPSASGTPGQRVTISCSGGRSNIGNNYVYWYQQLPGTAPKLLIYRHDQRPSGVPDRFSGSKSGTSASLAINGLRSEDEADYFCAVWDDSLSCYVFGAGTKLTVL
8.74
6) ADI-15652 (antibody, V domains shown, IgG) VH: EVQLLESGGGVVQPGRSLRLSCAASGFTFSDFSMHWVRQAPGKGLEWVALISNDGSNKYYSDSLKGSFIISRDNSKNTLYLQLNSLGAEDTALYYCARDAVPHYDYVWGNFDYWGQGTLVTVSS VL: QSVLTQPASVSASPGQSITISCTGTSSDVGGYNYVSWYQQHPGKAPKLIIYEVSNRPSGVSNRFSGSKSGNTASLTISGLQADDEADYYCSSYTSFTPVVFGGGTKLTVL
9.42

// below: pKd requested for another binder
I would be grateful if you could share the reported pKd for ADI-15637 (antibody, V domains shown, IgG; also called Antibody Number 202) VH: QVQLVQSGAEVTKPGASVRVSCKFSAYTLSALSIHWVRQAPGKGLEWMGAFDPEDGEPIYSQHFQGRVTMTEDTSTQTAYMELNSLRSEDTAVYYCSSVGPAGWFDPWGQGTLVTVSS VL: DIRLTQSPSSLSASVGDRVSITCRASQSISSYLHWYQQKPGKAPKLLIYAASSLQSGVPSRFSGSGSGSDFTLTISSLQPEDFATYYCHQSYIPPFTFGPGTKLEIK . 8.21
